# credit: PubChem BioAssay (Tox21)

# test-details: qHTS assay to identify aromatase inhibitors - cell viability counter screen (AID 743084);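 note: cells stimulated with testosterone during compound exposure; nearly all actives have a fitted effect of over 55% in size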
# run-parameters: MCF-7 aro ERE viability, CellTiter-Fluor, 24 h; series mostly up to 70.3 µM
Records with an inconclusive call do not appear. Activity calls are given as the source filed them. Calls come from the whole dose curve; as a rule, active = well fitted cell-killing curve with a large enough effect in the repeat runs; inconclusive = weak or mixed curves, or effect the other way; inactive = no such curve, though single readings can be large or run the other way.
Select the correct class. Options are active, inactive and nothing else.

{"compound": "CC(C)(C)C(O)C(Oc1ccc(Cl)cc1)n1cncn1 (stereo unspecified)", "cat": "inactive"}

Query string: Record request — test call for `c1ccc(CN2CCNCC2)cc1`
Result string: inactive

Query string: Record request — test call for `C/C(=C\c1ccccc1)[N+](=O)[O-]`
Result string: active

Query string: Record request — test call for `O=C(O)C(F)(F)C(F)(F)C(F)(F)C(F)(F)C(F)(F)C(F)(F)C(F)(F)C(F)(F)C(F)(F)C(F)(F)F`
Result string: inactive

Query string: Record request — test call for `Clc1cccc(SC2CCNCC2)n1`
Result string: inactive

Query string: Record request — test call for `Oc1ccc(Cl)c(Cl)c1Cl`
Result string: inactive

* * *

# test-details: qHTS RealTime-Glo MT Cell Viability Assay in HEK293 cells - 24 hour (AID 1224886); note: nearly all actives have a fitted effect of over 50% in size; note: potency is the fitted concentration of half-maximal effect
# run-parameters: RealTime-Glo luminescence; series mostly up to 76.8 µM
Results filed as inconclusive are left out. The source made the active and inactive calls. Calls come from the whole dose curve; as a rule, active = well fitted cell-killing curve with a large enough effect in the repeat runs; inconclusive = weak or mixed curves, or effect the other way; inactive = flat fitted curve, though single readings scatter.
endpoint-label: Potency

{"compound": "CCC(C)(NC(=O)c1cc(Cl)c(C)c(Cl)c1)C(=O)CCl (stereo unspecified)", "endpoint-label": "Potency", "obs-value": "24.7 µM (active)"}
{"compound": "C[C@]12CC[C@H]3[C@@H](CCC4=CC(=O)CC[C@@H]43)[C@@H]1CC[C@@H]2OC(=O)CCC1CCCCC1", "endpoint-label": "Potency", "obs-value": "inactive"}
{"compound": "C=CC(=O)OC", "endpoint-label": "Potency", "obs-value": "inactive"}
{"compound": "CC(C)(CCl)C(=O)Cl", "endpoint-label": "Potency", "obs-value": "inactive"}

Query string: Fill in: Potency of `ClCc1ccccc1` is ___
Result string: inactive

Query string: Fill in: Potency of `CCC(Br)(CC)C(=O)NC(N)=O` is ___
Result string: inactive

Query string: Fill in: Potency of `Nc1nc(=S)[nH][nH]1` is ___
Result string: inactive

Query string: Fill in: Potency of `C=CCCl` is ___
Result string: inactive

Query string: Fill in: Potency of `CC(C)(OO)c1ccccc1` is ___
Result string: inactive

Query string: Fill in: Potency of `BrCCCCBr` is ___
Result string: inactive

Query string: Fill in: Potency of `C=COC(C)=O` is ___
Result string: inactive

Query string: Fill in: Potency of `O=C(OC1CCCCC1)c1ccccc1C(=O)OC1CCCCC1` is ___
Result string: inactive

Query string: Fill in: Potency of `CCCCCC[N+](=O)[O-]` is ___
Result string: inactive

Query string: Fill in: Potency of Cn1cc[n+](C)c1 (tested in a mixture with another compound) is ___
Result string: inactive

Query string: Fill in: Potency of `N#C/C(N)=C(/N)C#N` is ___
Result string: inactive

Query string: Fill in: Potency of `O=NN1CCNCC1` is ___
Result string: inactive

Query string: Fill in: Potency of CC1CC(CC2CCC(N)C(C)C2)CCC1N (stereo unspecified) is ___
Result string: 44.4 µM (active)

Query string: Fill in: Potency of `COCCOCCO` is ___
Result string: inactive

Query string: Fill in: Potency of `CCN(C)N=O` is ___
Result string: inactive

Query string: Fill in: Potency of `O=Cc1ccc(Cl)cc1Cl` is ___
Result string: inactive

Query string: Fill in: Potency of `O=S(=O)(Cl)c1ccccc1` is ___
Result string: inactive

Query string: Fill in: Potency of `O=S1(=O)OC(c2cc(Br)c(O)c(Br)c2)(c2cc(Br)c(O)c(Br)c2)c2ccccc21` is ___
Result string: inactive
